molecular target: factor Xa (Homo sapiens, UniProt P00742)
Sequence (P00742 235-488 limits assumed): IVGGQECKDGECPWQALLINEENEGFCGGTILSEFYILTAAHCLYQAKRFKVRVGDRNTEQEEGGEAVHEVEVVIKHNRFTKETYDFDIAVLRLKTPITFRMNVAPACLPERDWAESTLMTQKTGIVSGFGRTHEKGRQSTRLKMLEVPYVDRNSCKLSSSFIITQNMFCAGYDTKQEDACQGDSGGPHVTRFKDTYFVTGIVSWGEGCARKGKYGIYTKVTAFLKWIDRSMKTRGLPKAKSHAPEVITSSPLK
Sequence (P00742 41-179 partner limits assumed): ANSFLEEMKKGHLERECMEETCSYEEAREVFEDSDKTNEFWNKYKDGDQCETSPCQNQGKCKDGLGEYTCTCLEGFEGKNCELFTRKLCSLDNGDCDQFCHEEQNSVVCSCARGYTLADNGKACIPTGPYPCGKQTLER
metric: pIC50
Numbers only, as −log10 of the molar value.

The molecule listed as CS(=O)(=O)c1ccccc1-c1ccc(OC(C(=O)Nc2cccc(C(=N)N)c2)c2ccccc2)cc1 (stereo not shown) [Example 1] has a reported pIC50 of 6.96
